Items are presented alongside their recorded self-cleavage kobs at 10000 uM GlcN6P.
B1: glmS ribozyme (parent)
chain: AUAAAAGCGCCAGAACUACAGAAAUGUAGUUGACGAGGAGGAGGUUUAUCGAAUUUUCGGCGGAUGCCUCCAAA

- Variants of: B1
- method.description: self-cleavage kobs at 10000 uM GlcN6P; higher = faster cleavage; RNA array
- assay.conditions: with glucosamine-6-phosphate
Variants at the floor of the assay were thinned out.
assay.metric: self-cleavage kobs at 10000 uM GlcN6P (s⁻¹)

>  <variant.annotation>
G37A C61A

>  <operator.symbol>
<

>  <measured.result>
1e-05

$$$$
>  <variant.annotation>
G38C U54G

>  <operator.symbol>
<

>  <measured.result>
1e-05

$$$$
>  <variant.annotation>
C16U G43C

>  <operator.symbol>
<

>  <measured.result>
1e-05

$$$$
>  <variant.annotation>
A39U U49C C68G

>  <operator.symbol>
<

>  <measured.result>
1e-05

$$$$
>  <variant.annotation>
G7U U65C

>  <operator.symbol>
<

>  <measured.result>
1e-05

$$$$
>  <variant.annotation>
G40C G43U C70A

>  <operator.symbol>
<

>  <measured.result>
1e-05

$$$$
>  <variant.annotation>
A14G U46A

>  <operator.symbol>
=

>  <measured.result>
0.00723

$$$$
>  <variant.annotation>
U54G G66C

>  <operator.symbol>
=

>  <measured.result>
0.00079

$$$$
>  <variant.annotation>
G41A A52U

>  <operator.symbol>
=

>  <measured.result>
9.26e-05

$$$$
>  <variant.annotation>
G9U A15C G44C U47C

>  <operator.symbol>
<

>  <measured.result>
1e-05

$$$$
>  <variant.annotation>
G40C U49C

>  <operator.symbol>
<

>  <measured.result>
1e-05

$$$$
>  <variant.annotation>
C16G A42G

>  <operator.symbol>
=

>  <measured.result>
0.00496

$$$$
>  <variant.annotation>
A33C U56A

>  <operator.symbol>
=

>  <measured.result>
8.05e-05

$$$$
>  <variant.annotation>
G41U G62A G63U

>  <operator.symbol>
<

>  <measured.result>
1e-05

$$$$
>  <variant.annotation>
A14G A52U

>  <operator.symbol>
=

>  <measured.result>
0.000509

$$$$
>  <variant.annotation>
G9U A64C

>  <operator.symbol>
<

>  <measured.result>
1e-05

$$$$
>  <variant.annotation>
C16G G32U C70U

>  <operator.symbol>
=

>  <measured.result>
0.000712

$$$$
>  <variant.annotation>
A42C C61G C70A

>  <operator.symbol>
<

>  <measured.result>
1e-05

$$$$
>  <variant.annotation>
G7U C50G G51A C70G

>  <operator.symbol>
=

>  <measured.result>
6.12e-05

$$$$
>  <variant.annotation>
A15U G32A A39U C71U

>  <operator.symbol>
=

>  <measured.result>
0.000208

$$$$
>  <variant.annotation>
C11U C70A

>  <operator.symbol>
=

>  <measured.result>
4.63e-05

$$$$
>  <variant.annotation>
A6C A12C A39C C67U

>  <operator.symbol>
<

>  <measured.result>
1e-05

$$$$
>  <variant.annotation>
C34U G38U G40U

>  <operator.symbol>
<

>  <measured.result>
1e-05

$$$$
>  <variant.annotation>
G29U C70G

>  <operator.symbol>
=

>  <measured.result>
6.77e-05

$$$$
>  <variant.annotation>
C16G U46C

>  <operator.symbol>
=

>  <measured.result>
0.00032

$$$$
>  <variant.annotation>
A6U C16A C34A G38C

>  <operator.symbol>
<

>  <measured.result>
1e-05

$$$$
>  <variant.annotation>
G43U A64C

>  <operator.symbol>
<

>  <measured.result>
1e-05

$$$$
>  <variant.annotation>
U65A C70G

>  <operator.symbol>
=

>  <measured.result>
7.32e-05

$$$$
>  <variant.annotation>
A15C U55C

>  <operator.symbol>
=

>  <measured.result>
0.00573

$$$$
>  <variant.annotation>
G13U G38C C58U C61U

>  <operator.symbol>
<

>  <measured.result>
1e-05

$$$$
>  <variant.annotation>
C16G G40C

>  <operator.symbol>
=

>  <measured.result>
0.000252

$$$$
>  <variant.annotation>
G40U G66C

>  <operator.symbol>
=

>  <measured.result>
0.00046

$$$$
>  <variant.annotation>
C34A A53C

>  <operator.symbol>
<

>  <measured.result>
1e-05

$$$$
>  <variant.annotation>
A42C U69C

>  <operator.symbol>
=

>  <measured.result>
0.000346

$$$$
>  <variant.annotation>
G40A G66A

>  <operator.symbol>
=

>  <measured.result>
0.00641

$$$$
>  <variant.annotation>
G9A U30C U31C C50A

>  <operator.symbol>
<

>  <measured.result>
1e-05

$$$$
>  <variant.annotation>
C8A U31C A42U U65G

>  <operator.symbol>
<

>  <measured.result>
1e-05

$$$$
>  <variant.annotation>
C58A C67A

>  <operator.symbol>
=

>  <measured.result>
0.000144

$$$$
>  <variant.annotation>
A39U C58A

>  <operator.symbol>
=

>  <measured.result>
0.000214

$$$$
>  <variant.annotation>
G13U A15G

>  <operator.symbol>
=

>  <measured.result>
0.00191

$$$$
>  <variant.annotation>
C61U A64C

>  <operator.symbol>
<

>  <measured.result>
1e-05

$$$$
